# target_system: STM0435 (Salmonella enterica, UniProt Q8ZRC9)
# assay_protocol: SPR
# Type: binding
parameter_measured: Kd (µM)
Please reply with the bare figure in µM and do not write the unit itself.

Record `Nc1nc2c(ncn2[C@@H]2O[C@@H]3CO[P@](=O)(O)O[C@H]4[C@@H](O)[C@H](n5cnc6c(=O)[nH]c(N)nc65)O[C@@H]4CO[P@](=O)(O)O[C@H]3[C@H]2O)c(=O)[nH]1` , field Kd: 8.38

----------
# target_system: STM0435 (Salmonella enterica, UniProt Q8ZRC9, D138H/R137H)
# assay_protocol: biochemical
parameter_measured: Kd (µM)
Please reply with the bare figure in µM and do not write the unit itself.

Record `Nc1nc2c(ncn2[C@@H]2O[C@@H]3CO[P@](=O)(O)O[C@H]4[C@@H](O)[C@H](n5cnc6c(=O)[nH]c(N)nc65)O[C@@H]4CO[P@](=O)(O)O[C@H]3[C@H]2O)c(=O)[nH]1` , field Kd: 25.3

----------
# target_system: STM0435 (Salmonella enterica, UniProt Q8ZRC9, D138H/R137H/R33H)
# assay_protocol: biochemical
parameter_measured: Kd (µM)
Please reply with the bare figure in µM and do not write the unit itself.

Record `Nc1nc2c(ncn2[C@@H]2O[C@@H]3CO[P@](=O)(O)O[C@H]4[C@@H](O)[C@H](n5cnc6c(=O)[nH]c(N)nc65)O[C@@H]4CO[P@](=O)(O)O[C@H]3[C@H]2O)c(=O)[nH]1` , field Kd: 33.2

----------
# target_system: STM0435 (Salmonella enterica, UniProt Q8ZRC9, R33H)
# assay_protocol: biochemical
parameter_measured: Kd
Be sure to follow the number with its unit.

Summary line: Nc1nc2c(ncn2[C@@H]2O[C@@H]3CO[P@](=O)(O)O[C@H]4[C@@H](O)[C@H](n5cnc6c(=O)[nH]c(N)nc65)O[C@@H]4CO[P@](=O)(O)O[C@H]3[C@H]2O)c(=O)[nH]1 [c-di-GMP] , STM0435 (Salmonella enterica, UniProt Q8ZRC9, R33H), reported Kd = 15.2 µM
